- SYSTEM UNDER TEST: human CD3 (human, UniProt P07766 23-207; P04234 22-171; P09693 23-182)
- Sequence (P07766 23-207, chain 1 of 3): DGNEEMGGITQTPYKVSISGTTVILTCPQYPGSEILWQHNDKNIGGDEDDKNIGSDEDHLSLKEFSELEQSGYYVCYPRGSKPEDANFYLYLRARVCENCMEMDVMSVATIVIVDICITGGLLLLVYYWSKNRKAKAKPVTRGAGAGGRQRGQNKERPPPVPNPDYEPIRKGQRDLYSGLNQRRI
- Sequence (P04234 22-171, chain 2 of 3): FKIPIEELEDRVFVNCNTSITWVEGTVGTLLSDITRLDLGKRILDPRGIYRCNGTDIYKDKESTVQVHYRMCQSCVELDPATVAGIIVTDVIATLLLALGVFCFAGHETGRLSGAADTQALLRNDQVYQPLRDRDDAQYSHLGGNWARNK
- Sequence (P09693 23-182, chain 3 of 3): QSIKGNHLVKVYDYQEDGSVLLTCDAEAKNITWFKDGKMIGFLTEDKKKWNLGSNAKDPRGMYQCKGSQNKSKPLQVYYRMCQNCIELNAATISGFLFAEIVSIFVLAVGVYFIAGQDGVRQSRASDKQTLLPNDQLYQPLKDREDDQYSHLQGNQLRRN
- ASSAY NAME: cell-based or functional assay
// CD4 EC50 (nM); CD69/CD25 on human T cells, plate-coated antibody lookup, one value per entry
MEASUREMENT LABEL: CD4 EC50 (nM); CD69/CD25 on human T cells, plate-coated antibody

BINDER	RESULT
mAb 115 (antibody, V domains shown) VH: EVQLVESGGGLVKTGGSHRLSCVASGFSFKKAWMNWVRQAPGKGLEWVGRIKRNSDGGTTDYAAPVKGRFILSRDDSKNTLYLQMNSLKTEDTAVYYCTTLDSSSWYVGYYYMDVWGKGTTVTVSS VL: DIQMTQSPSSVSASVGDRVTITCRASQDINNWLAWYQQKPGKAPKILIYTASNLQSGVPSRFSGSGSGTDFTLTISSLQPEDFATYFCQQAHGLPITFGQGTRLEIK	7
mAb 94 (antibody, V domains shown) VH: QVHLVESGGGVVQPGRSLRLSCSASGFTFSGYGMHWVRQAPGKGLEWVALIYFDGRNKYYADSVKGRFTISRDNSKNTLYLQMNSLRAEDTAVYYCARGGGYNWFDPWGQGTLVTVSS VL: DIQMTQSPSSLSASVGDRVTITCRASQSISNYLNWYQQKPGKAPKLLIYLASSLQSGVPSRFSGSGSGTDFTLTINSLQPEDFASYYCQLSYSSPFTFGPGTKVDVN	11.7
mAb 162 (antibody, V domains shown) VH: EVQLVESGGGLVQPGRSLRLSCAASGFTFDNYAMHWVRQAPGKGLEWVSGISWNSGSIGYADSVKGRFTISRDNAKNSLYLELNSLRAEDTALYYCAKDSSGYGYYYNYYMDVWGKGTTVTVSS VL: EIVMTQSPATLSVSPGERATLSCRASQSVRSNLAWYQQKPGQAPRLLIYGASTRATGIPAKFSGSGSGTEFTLTISSLQSEDFAVYYCQYYYNWPHFGQGTRLEIK	12.6
